Where these numbers come from: patent US8216619B2

Parameter: concentration (% of total isomers) 9-Z. Scope: all listed entries.
experiment: Stability of pure lycopene isomers in n-hexane during storage at room temperature; type: physicochemical; conditions: n-hexane, room temperature, absence of light, 12 days

If you can, please state the reported concentration (% of total isomers) 9-Z value of CC(C)=CCC/C(C)=C/C=C/C(C)=C/C=C/C(C)=C/C=C/C=C(C)/C=C/C=C(C)/C=C/C=C(\C)CCC=C(C)C [all-E lycopene] .
2.0 % of total isomers

# concentration (% of total isomers) 9-Z lookup, item CC(C)=CCC/C(C)=C/C=C/C(C)=C/C=C/C(C)=C\C=C\C=C(C)\C=C\C=C(C)\C=C\C=C(/C)CCC=C(C)C [13-Z lycopene]
2.6 % of total isomers

Form field: reported concentration (% of total isomers) 9-Z of CC(C)=CCC/C(C)=C/C=C/C(C)=C\C=C\C(C)=C\C=C\C=C(C)\C=C\C=C(C)\C=C\C=C(/C)CCC=C(C)C [9-Z lycopene]
66.5 % of total isomers

Now consider the entry below.
For CC(C)=CCC\C(C)=C/C=C/C(C)=C/C=C/C(C)=C/C=C/C=C(C)/C=C/C=C(C)/C=C/C=C(\C)CCC=C(C)C [5-Z lycopene] , what is its reported concentration (% of total isomers) 9-Z?
0.7 % of total isomers
